The entries below are paired with their reported tissue uptake at 1 h.
experiment: Ex vivo biodistribution of [18F]14 and [18F]15; format: in vivo, Rj:NMRI-Foxn1^nu/nu mice; conditions: mouse, iv, 0.2 nmol, 60 min post injection, i.v., baseline; read-out: gallbladder
The answer is to be given in %ID/g; state only the numeric part.

COMPOUND	tissue uptake at 1 h / %ID/g
C[C@@H](O)[C@@H]1NC(=O)[C@H](CCCCN)NC(=O)[C@@H](Cc2c[nH]c3ccccc23)NC(=O)[C@H](Cc2ccc(O)cc2)NC(=O)[C@@H](NC(=O)[C@@H](Cc2ccccc2)NC(=O)CCOCCOCCOCCOCCON=Cc2ccc(CNC(=O)OC3CCCc4cnnc(-c5ccc(CC(=O)NCC[N+](C)(C)C[B-](F)(F)F)cc5)c4CC3)cc2)CSSC[C@@H](C(=O)N[C@H](CO)[C@@H](C)O)NC1=O (some centres unmarked) [[^18F]14]	17.8

tissue uptake at 1 h in this record for C[C@@H](O)[C@@H]1NC(=O)[C@H](CCCCN)NC(=O)[C@@H](Cc2c[nH]c3ccccc23)NC(=O)[C@H](Cc2ccc(O)cc2)NC(=O)[C@@H](NC(=O)[C@@H](Cc2ccccc2)NC(=O)CCOCCOCCOCCOCCON=Cc2ccc(C(=O)NCCOCCOCCOCCNC(=O)OC3CCCc4cnnc(-c5ccc(CC(=O)NCC[N+](C)(C)C[B-](F)(F)F)cc5)c4CC3)cc2)CSSC[C@@H](C(=O)N[C@H](CO)[C@@H](C)O)NC1=O (some centres unmarked) [[^18F]15] : 9.1

----------
test: Ex vivo biodistribution of [18F]14 and [18F]15; format: in vivo, Rj:NMRI-Foxn1^nu/nu mice; conditions: mouse, iv, 0.2 nmol, 60 min post injection, i.v., blocked with octreotide; read-out: heart
RECORDED ENDPOINT: tissue uptake at 1 h (%ID/g)
The answer is to be given in %ID/g; state only the numeric part.

MOLECULE	tissue uptake at 1 h (%ID/g)
C[C@@H](O)[C@@H]1NC(=O)[C@H](CCCCN)NC(=O)[C@@H](Cc2c[nH]c3ccccc23)NC(=O)[C@H](Cc2ccc(O)cc2)NC(=O)[C@@H](NC(=O)[C@@H](Cc2ccccc2)NC(=O)CCOCCOCCOCCOCCON=Cc2ccc(CNC(=O)OC3CCCc4cnnc(-c5ccc(CC(=O)NCC[N+](C)(C)C[B-](F)(F)F)cc5)c4CC3)cc2)CSSC[C@@H](C(=O)N[C@H](CO)[C@@H](C)O)NC1=O (some centres unmarked) [[^18F]14]	1.9

Field: next molecule
tissue uptake at 1 h in this record for C[C@@H](O)[C@@H]1NC(=O)[C@H](CCCCN)NC(=O)[C@@H](Cc2c[nH]c3ccccc23)NC(=O)[C@H](Cc2ccc(O)cc2)NC(=O)[C@@H](NC(=O)[C@@H](Cc2ccccc2)NC(=O)CCOCCOCCOCCOCCON=Cc2ccc(C(=O)NCCOCCOCCOCCNC(=O)OC3CCCc4cnnc(-c5ccc(CC(=O)NCC[N+](C)(C)C[B-](F)(F)F)cc5)c4CC3)cc2)CSSC[C@@H](C(=O)N[C@H](CO)[C@@H](C)O)NC1=O (some centres unmarked) [[^18F]15] : 2.1

----------
assay: Ex vivo biodistribution of [18F]14 and [18F]15; assay type: in vivo, Rj:NMRI-Foxn1^nu/nu mice; conditions: mouse, iv, 0.2 nmol, 60 min post injection, i.v., baseline; read-out: liver
The entries below are paired with their reported tissue uptake at 1 h.
The answer is to be given in %ID/g; state only the numeric part.

COMPOUND	NUMERIC VALUE
C[C@@H](O)[C@@H]1NC(=O)[C@H](CCCCN)NC(=O)[C@@H](Cc2c[nH]c3ccccc23)NC(=O)[C@H](Cc2ccc(O)cc2)NC(=O)[C@@H](NC(=O)[C@@H](Cc2ccccc2)NC(=O)CCOCCOCCOCCOCCON=Cc2ccc(CNC(=O)OC3CCCc4cnnc(-c5ccc(CC(=O)NCC[N+](C)(C)C[B-](F)(F)F)cc5)c4CC3)cc2)CSSC[C@@H](C(=O)N[C@H](CO)[C@@H](C)O)NC1=O (some centres unmarked) [[^18F]14]	30

Field: next compound
tissue uptake at 1 h in this record for C[C@@H](O)[C@@H]1NC(=O)[C@H](CCCCN)NC(=O)[C@@H](Cc2c[nH]c3ccccc23)NC(=O)[C@H](Cc2ccc(O)cc2)NC(=O)[C@@H](NC(=O)[C@@H](Cc2ccccc2)NC(=O)CCOCCOCCOCCOCCON=Cc2ccc(C(=O)NCCOCCOCCOCCNC(=O)OC3CCCc4cnnc(-c5ccc(CC(=O)NCC[N+](C)(C)C[B-](F)(F)F)cc5)c4CC3)cc2)CSSC[C@@H](C(=O)N[C@H](CO)[C@@H](C)O)NC1=O (some centres unmarked) [[^18F]15] : 19
